Target: GLP-1 Receptor (GLP1R) (Homo sapiens)
Construct: host or cells: HEK293/GLP1R/CRE-LUC
Sequence (P43220 24-463): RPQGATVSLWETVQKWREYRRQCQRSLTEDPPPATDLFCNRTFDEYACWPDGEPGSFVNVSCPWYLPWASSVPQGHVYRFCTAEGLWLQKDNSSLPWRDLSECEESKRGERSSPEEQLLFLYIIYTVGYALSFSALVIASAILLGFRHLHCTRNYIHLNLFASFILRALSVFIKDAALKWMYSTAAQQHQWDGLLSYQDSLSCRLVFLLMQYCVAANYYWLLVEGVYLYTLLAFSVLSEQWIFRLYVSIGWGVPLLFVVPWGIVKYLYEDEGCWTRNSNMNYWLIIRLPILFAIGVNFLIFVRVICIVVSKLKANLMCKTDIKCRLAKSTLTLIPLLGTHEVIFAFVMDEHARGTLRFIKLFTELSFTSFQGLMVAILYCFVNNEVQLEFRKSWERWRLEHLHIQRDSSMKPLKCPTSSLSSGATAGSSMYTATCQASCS
Assay: GLP-1R agonist cAMP stimulation assay (Method 3)
Type: cell-based
Conditions: HEK293/GLP1R/CRE-LUC cells (HDB), Method 3, 30 min incubation; read-out: GLP1R cAMP Stimulation DR: pEC50 (M) [Species: Human, Assay Cell Line: HDB] (converted)
Where a name gives a salt, the structure may show the parent alone.
As shown below, each of these molecules has a reported EC50 value.

molecule	EC50
CCP(=O)(CC)c1ccc(-n2ccn(-c3c4c(nn3-c3cc(C)c(F)c(C)c3)CCN(C(=O)c3cc5cc(C6CCOCC6)ccc5n3[C@@]3(c5noc(=O)[nH]5)C[C@@H]3C)[C@H]4C)c2=O)cc1N(C)C [Compound 117a, HCl salt]	1e-10 to 1e-09 M
Cc1cc(-n2nc3c(c2-n2ccn(Cc4cccc(P(C)(C)=O)c4)c2=O)[C@H](C)N(C(=O)c2cc4cc(C5CCOCC5)ccc4n2[C@@]2(c4noc(=O)[nH]4)C[C@@H]2C)CC3)cc(C)c1F [Compound 147a]	1e-09 to 1e-08 M
CCP(=O)(CC)c1ccc(-n2ccn(-c3c4c(nn3-c3cc(C)c(F)c(C)c3)CCN(C(=O)c3cc5cc(C6CCOCC6)ccc5n3C3(c5noc(=O)[nH]5)CC3)[C@H]4C)c2=O)cc1NC [Compound 135a]	≤ 1e-10 M
CCP(=O)(CC)c1ccc(-n2ccn(-c3c4c(nn3-c3cc(C)c(F)c(C)c3)CCN(C(=O)c3cc5cc([C@@H]6CCOC(C)(C)C6)ccc5n3[C@@]3(c5noc(=O)[nH]5)C[C@@H]3C)[C@H]4C)c2=O)cc1NC [Compound 146a]	≤ 1e-10 M
CCP(=O)(CC)c1c(F)cc(-n2ccn(-c3c4c(nn3-c3cc(C)c(F)c(C)c3)CCN(C(=O)c3cc5cc(C6CCOCC6)ccc5n3[C@@]3(c5noc(=O)[nH]5)C[C@@H]3C)[C@H]4C)c2=O)cc1NC [Compound 143a]	1e-10 to 1e-09 M
CCP(=O)(CC)c1ccc(-n2ccn(-c3c4c(nn3-c3cc(C)c(F)c(C)c3)CCN(C(=O)c3cc5cc(C6CCOCC6)ccc5n3[C@@]3(c5noc(=O)[nH]5)C[C@@H]3C)[C@H]4C)c2=O)cc1 [Compound 129a]	≤ 1e-10 M
CNc1cc(-n2ccn(-c3c4c(nn3-c3cc(C)c(F)c(C)c3)CCN(C(=O)c3cc5cc(C6CCOCC6)ccc5n3[C@@]3(c5noc(=O)[nH]5)C[C@@H]3C)[C@H]4C)c2=O)ccc1P(C)(C)=O [Compound 106a]	≤ 1e-10 M
CCP(=O)(CC)c1ccc(-n2ccn(-c3c4c(nn3-c3cc(C)c(F)c(C)c3)CCN(C(=O)c3cc5cc(C6CCOCC6)ccc5n3[C@@]3(c5noc(=O)[nH]5)C[C@@H]3C)[C@H]4C)c2=O)cc1N [Compound 138a]	≤ 1e-10 M
CCNc1cc(-n2ccn(-c3c4c(nn3-c3cc(C)c(F)c(C)c3)CCN(C(=O)c3cc5cc(C6CCOCC6)ccc5n3[C@@]3(c5noc(=O)[nH]5)C[C@@H]3C)[C@H]4C)c2=O)ccc1P(=O)(CC)CC [Compound 120a]	≤ 1e-10 M
CCP(=O)(CC)c1ccc(-n2ccn(-c3c4c(nn3-c3cc(C)c(F)c(C)c3)CCN(C(=O)c3cc5cc(C6CCOCC6)ccc5n3[C@@]3(c5noc(=O)[nH]5)C[C@@H]3C)[C@H]4C)c2=O)cc1NS(C)(=O)=O [Compound 116a]	1e-10 to 1e-09 M
Cc1cc(-n2nc3c(c2-n2ccn(-c4ccc(P(C)(C)=O)c(OC(F)(F)F)c4)c2=O)[C@H](C)N(C(=O)c2cc4cc(C5CCOCC5)ccc4n2[C@@]2(c4noc(=O)[nH]4)C[C@@H]2C)CC3)cc(C)c1F [Compound 123a]	1e-10 to 1e-09 M
Cc1cc(-n2nc3c(c2-n2ccn(-c4ccc(P(C)(C)=O)cc4)c2=O)[C@H](C)N(C(=O)c2cc4cc(C5CCOCC5)ccc4n2[C@@]2(c4noc(=O)[nH]4)C[C@@H]2C)CC3)cc(C)c1F [Compound 101a]	1e-10 to 1e-09 M
CCP(=O)(CC)c1ccc(-n2ccn(-c3c4c(nn3-c3cc(C)c(F)c(C)c3)CCN(C(=O)c3cc5cc(N6CCOC(C)(C)C6)ccc5n3[C@@]3(c5noc(=O)[nH]5)C[C@@H]3C)[C@H]4C)c2=O)cc1NC [Compound 150a]	1e-10 to 1e-09 M
Cc1cc(-n2nc3c(c2-n2ccn(-c4ccc(P(C)(C)=O)c(N5CCOCC5)c4)c2=O)[C@H](C)N(C(=O)c2cc4cc(C5CCOCC5)ccc4n2[C@@]2(c4noc(=O)[nH]4)C[C@@H]2C)CC3)cc(C)c1F [Compound 125a]	1e-10 to 1e-09 M
Cc1cc(-n2nc3c(c2-n2ccn(-c4cccc(P(C)(C)=O)c4O)c2=O)[C@H](C)N(C(=O)c2cc4cc(C5CCOCC5)ccc4n2[C@@]2(c4noc(=O)[nH]4)C[C@@H]2C)CC3)cc(C)c1F [Compound 107a]	1e-10 to 1e-09 M
CCP(=O)(CC)c1ccc(-n2ccn(-c3c4c(nn3-c3cc(C)c(F)c(C)c3)CCN(C(=O)c3cc5cc(C6CCOCC6)ccc5n3[C@@]3(c5noc(=O)[nH]5)C[C@@H]3C)[C@H]4C)c2=O)cc1NC(=O)C1CC1 [Compound 115a]	1e-10 to 1e-09 M
CCP(=O)(CC)c1ccc(-n2ccn(-c3c4c(nn3-c3cc(C)c(F)c(C)c3)CCN(C(=O)c3cc5cc(C6CCOCC6)ccc5n3[C@@]3(c5noc(=O)[nH]5)C[C@@H]3C)[C@H]4C)c2=O)c(F)c1NC [Compound 145a]	≤ 1e-10 M
